- TARGET_OR_TEST_SYSTEM: T1, recombinant human DR3-human IgG1-Fc (soluble human DR3(EC)-hG1Fc) (human)
- T1 construct: also called huDR3-huFc; hDR3(EC)-hG1Fc
- T1 sequence (chain, as listed by the source limits assumed): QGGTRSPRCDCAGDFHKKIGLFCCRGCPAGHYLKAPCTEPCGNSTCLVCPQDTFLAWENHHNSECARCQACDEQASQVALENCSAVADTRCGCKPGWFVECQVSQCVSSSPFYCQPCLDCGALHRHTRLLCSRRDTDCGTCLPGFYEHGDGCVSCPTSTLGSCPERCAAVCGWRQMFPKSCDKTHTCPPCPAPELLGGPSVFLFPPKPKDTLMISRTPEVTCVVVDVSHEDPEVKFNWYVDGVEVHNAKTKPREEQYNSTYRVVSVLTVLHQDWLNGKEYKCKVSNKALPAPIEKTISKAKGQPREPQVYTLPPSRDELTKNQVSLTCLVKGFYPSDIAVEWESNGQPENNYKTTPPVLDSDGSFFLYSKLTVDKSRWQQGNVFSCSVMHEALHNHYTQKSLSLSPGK
- METHOD_DESCRIPTION: SPR, Fab on immobilised DR3-Fc
Recorded fold increase of binding affinity against parental 142A2 values for a group of binders are listed next.

[
  {
    "BINDER": "142A2-L54Q Fab (Fab, V domains shown, Only the variable domains are written; also called A2-Q) VH: QVQLQQSGPGLVKPSQTLSLTCAISGDSVSGYSAAWNWIRQSPSRGLEWLGRTYYRSKWYNDYAVSVKSRITINPDTSKNQFSLQLNSVTPEDTAVYYCARDYYGSESYYNGGYYYYGMDVWGQGTTVTVSS VL: AIQLTQSPSSLSASVGDRVTITCRASPGISSALAWYQQKPGKAPKLLMYDASSQESGVPSRFSGSGSGTDFTLTISSLQPEDFATYYCQQFNDYPLTFGGGTKVEIK",
    "READING": "~1.2 fold"
  }
]

Given item 142A2-A51E Fab (Fab, V domains shown, Only the variable domains are written; also called A2-E) VH: QVQLQQSGPGLVKPSQTLSLTCAISGDSVSGYSAAWNWIRQSPSRGLEWLGRTYYRSKWYNDYAVSVKSRITINPDTSKNQFSLQLNSVTPEDTAVYYCARDYYGSESYYNGGYYYYGMDVWGQGTTVTVSS VL: AIQLTQSPSSLSASVGDRVTITCRASPGISSALAWYQQKPGKAPKLLMYDESSLESGVPSRFSGSGSGTDFTLTISSLQPEDFATYYCQQFNDYPLTFGGGTKVEIK , the value recorded as its fold increase of binding affinity against parental 142A2 is ~1.8 fold

Given item 142A2-G112R/A51E/L54Q Fab (Fab, V domains shown, Only the variable domains are written; also called A2-EQR; 142A2-EQR) VH: QVQLQQSGPGLVKPSQTLSLTCAISGDSVSGYSAAWNWIRQSPSRGLEWLGRTYYRSKWYNDYAVSVKSRITINPDTSKNQFSLQLNSVTPEDTAVYYCARDYYGSESYYNRGYYYYGMDVWGQGTTVTVSS VL: AIQLTQSPSSLSASVGDRVTITCRASPGISSALAWYQQKPGKAPKLLMYDESSQESGVPSRFSGSGSGTDFTLTISSLQPEDFATYYCQQFNDYPLTFGGGTKVEIK , the value recorded as its fold increase of binding affinity against parental 142A2 is ~2.2 fold

Given item 142A2-A51E/L54Q Fab (Fab, V domains shown, Only the variable domains are written; also called A2-EQ) VH: QVQLQQSGPGLVKPSQTLSLTCAISGDSVSGYSAAWNWIRQSPSRGLEWLGRTYYRSKWYNDYAVSVKSRITINPDTSKNQFSLQLNSVTPEDTAVYYCARDYYGSESYYNGGYYYYGMDVWGQGTTVTVSS VL: AIQLTQSPSSLSASVGDRVTITCRASPGISSALAWYQQKPGKAPKLLMYDESSQESGVPSRFSGSGSGTDFTLTISSLQPEDFATYYCQQFNDYPLTFGGGTKVEIK , the value recorded as its fold increase of binding affinity against parental 142A2 is ~1.9 fold

Given item 142A2-G112R/A51E Fab (Fab, V domains shown, Only the variable domains are written; also called A2-ER) VH: QVQLQQSGPGLVKPSQTLSLTCAISGDSVSGYSAAWNWIRQSPSRGLEWLGRTYYRSKWYNDYAVSVKSRITINPDTSKNQFSLQLNSVTPEDTAVYYCARDYYGSESYYNRGYYYYGMDVWGQGTTVTVSS VL: AIQLTQSPSSLSASVGDRVTITCRASPGISSALAWYQQKPGKAPKLLMYDESSLESGVPSRFSGSGSGTDFTLTISSLQPEDFATYYCQQFNDYPLTFGGGTKVEIK , the value recorded as its fold increase of binding affinity against parental 142A2 is ~2 fold
